# TESTED_SYSTEM: glucose-6-phosphate dehydrogenase-6-phosphogluconolactonase [Plasmodium falciparum 3D7]
# PROCEDURE_TEXT: inhibition of P. falciparum G6PD activity – biochemical, direct NADPH end-point detection, set 2, orthogonal assay for PfG6PD antimalarial inhibitor project, SAR follow-up (AID 602132)
# TEST_PARAMETERS: recombinant PfG6PD
Activity calls are given as the source filed them. No rule for the calls is given here.
PROPERTY_MEASURED: IC50

Field: example entries. Status: answers known.
CCN1CCC[C@@H]1CNC(=O)c1ccc2c(c1)NC(=O)c1ccccc1S2 ... 6.69 µM
O=C(NCCNC1CCCCC1)c1ccc2c(c1)NC(=O)c1ccccc1S2 ... > 80 µM (inactive)
CCCN1CCCC1CNC(=O)c1ccc2c(c1)NC(=O)/C(=C/c1ccccc1F)S2 (stereo unspecified) ... > 80 µM (inactive)
NC1CCN(C(=O)c2ccc3c(c2)NC(=O)c2ccccc2S3)C1 (stereo unspecified) ... > 80 µM (inactive)
CCC(C)N1CCCC1CNC(=O)c1ccc2c(c1)NC(=O)c1ccccc1S2 (stereo unspecified) ... > 80 µM (inactive)

q: What value of measured IC50 is listed for "NCCNC(=O)c1ccc2c(c1)NC(=O)c1ccccc1S2" ?
a: > 80 µM (inactive)

q: What value of measured IC50 is listed for CCN1CCCC1CNC(=O)c1ccc2c(c1)NC(=O)/C(=C/c1ccc(F)cc1)S2 (stereo unspecified) ?
a: > 80 µM (inactive)

q: What value of measured IC50 is listed for CCC(C)N(CCNC(=O)c1ccc2c(c1)NC(=O)c1ccccc1S2)C1CCCCC1 (stereo unspecified) ?
a: 25 µM

q: What value of measured IC50 is listed for "O=C(NCCN1CCOCC1)c1ccc2c(c1)NC(=O)c1ccccc1S2" ?
a: > 80 µM (inactive)

---

# TESTED_SYSTEM: glucose-6-phosphate dehydrogenase-6-phosphogluconolactonase [Plasmodium falciparum 3D7]
# PROCEDURE_TEXT: inhibition of P. falciparum G6PD activity – biochemical, direct NADPH end-point detection, set 2, orthogonal assay for PfG6PD antimalarial inhibitor project, SAR follow-up (AID 602132)
# TEST_PARAMETERS: recombinant PfG6PD
Active and inactive are the calls of the source. No rule for the calls is given here.
Returns: one label drawn from active, inactive

CCN1CCCC1CNC(=O)c1ccc2c(c1)NC(=O)/C(=C/c1ccc3ccccc3c1)S2 (configuration not stated) ... inactive
CCN1CCCC1CNC(=O)c1ccc2c(c1)NC(=O)/C(=C/c1cccc(F)c1)S2 (configuration not stated) ... inactive
CCN1CCC[C@H]1CNC(=O)c1ccc2c(c1)NC(=O)c1ccccc1S2 ... active
CN(C)c1ccccc1CNC(=O)c1ccc2c(c1)NC(=O)/C(=C/c1ccccc1F)S2 ... inactive
CCN1CCCC1CNC(=O)c1ccc2c(c1)NC(=O)/C(=C/c1cccc(F)c1F)S2 (configuration not stated) ... inactive
NC1CCN(C(=O)c2ccc3c(c2)NC(=O)/C(=C/c2ccccc2F)S3)C1 (configuration not stated) ... inactive
CC(C)(C)OC(=O)N1CCCC1CNC(=O)c1ccc2c(c1)NC(=O)/C(=C/c1ccccc1F)S2 (configuration not stated) ... inactive
CCN(CC)CCCC(C)Nc1ccnc2cc(Cl)ccc12 (configuration not stated) ... inactive

q: Called result for "O=C(NCCN1CCCCC1)c1ccc2c(c1)NC(=O)c1ccccc1S2"
a: active

q: Called result for CCN1CCCC1CNC(=O)c1ccc2c(c1)NC(=O)C(Cc1ccccc1F)S2 (configuration not stated)
a: inactive

q: Called result for CCN1CCCC1CNC(=O)c1ccc2c(c1)NC(=O)/C(=C/c1c(F)cccc1F)S2 (configuration not stated)
a: inactive

q: Called result for O=C1Nc2cc(C(=O)NCC3CCCN3)ccc2S/C1=C\c1ccccc1F (configuration not stated)
a: inactive
